conditions: in isobutanol, 273.15 K
REPORTED ENDPOINT: solubility (mole fraction)

Req: Any idea what solubility (mole fraction) was measured for CCN(CC)C(=S)SSC(=S)N(CC)CC ?
Resp: 0.00101

* * *

conditions: in THF, 273.15 K
REPORTED ENDPOINT: solubility (mole fraction)
Numbers only.

Req: Any idea what solubility (mole fraction) was measured for CCN(CC)C(=S)SSC(=S)N(CC)CC ?
Resp: 0.0618

* * *

details: in n-butanol, 278.15 K
REPORTED ENDPOINT: solubility (mole fraction)
Answers are plain numbers.

Req: Any idea what solubility (mole fraction) was measured for CCN(CC)C(=S)SSC(=S)N(CC)CC ?
Resp: 0.00155
